Here, each record is paired with measured EC50 data.
molecular target: Hexokinase-4 (Homo sapiens, UniProt P35557); assay: Activation of human recombinant glucokinase using 5 mM glucose as substrate in presence of NAD+ and 4% HSA by glucose 6-phosphate dehydrogenase coupled assay
Sequence (P35557 whole entry): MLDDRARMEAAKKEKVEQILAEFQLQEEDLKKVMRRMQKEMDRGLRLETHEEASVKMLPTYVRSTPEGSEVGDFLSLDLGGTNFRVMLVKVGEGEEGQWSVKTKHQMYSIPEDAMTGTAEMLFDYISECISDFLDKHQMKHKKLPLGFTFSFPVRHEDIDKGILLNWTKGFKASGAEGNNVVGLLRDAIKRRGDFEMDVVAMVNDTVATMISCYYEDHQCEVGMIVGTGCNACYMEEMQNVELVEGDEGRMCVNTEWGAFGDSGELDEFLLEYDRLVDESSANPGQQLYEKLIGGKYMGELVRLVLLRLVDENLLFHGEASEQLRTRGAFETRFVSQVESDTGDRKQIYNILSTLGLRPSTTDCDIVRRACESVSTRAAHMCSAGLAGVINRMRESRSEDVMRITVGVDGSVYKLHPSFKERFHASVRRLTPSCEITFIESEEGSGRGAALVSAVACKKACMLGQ

>  <Smiles Input>
CNC(=O)Nc1cc(Oc2cncc(C)c2)c([C@H]2C[C@@H]2CO)cn1

>  <System Under Test>
Hexokinase-4 (Homo sapiens, UniProt P35557)

>  <EC50 / µM>
0.17

$$$$
>  <Smiles Input>
CNC(=O)Nc1cc(Oc2cncc(OC)c2)c([C@@H]2COCC[C@@H]2O)cn1

>  <System Under Test>
Hexokinase-4 (Homo sapiens, UniProt P35557)

>  <EC50 / µM>
0.92

$$$$
>  <Smiles Input>
CNC(=O)Nc1cc(Oc2cncc(C)c2)c([C@H]2C[C@@H]2C(C)(C)O)cn1

>  <System Under Test>
Hexokinase-4 (Homo sapiens, UniProt P35557)

>  <EC50 / µM>
0.13

$$$$
>  <Smiles Input>
CNC(=O)Nc1cc(Oc2cncc(C)c2)c([C@@H]2CC[C@@H](O)C2)cn1

>  <System Under Test>
Hexokinase-4 (Homo sapiens, UniProt P35557)

>  <EC50 / µM>
0.19

$$$$

FYI, the data here is from BindingDB's records for doi:10.1021/acsmedchemlett.6b00145.
